assay: In vitro cytotoxic activity against human squamous cell carcinoma (HSC-2) cells.; format: functional
Structures can show the parent of a compound that is named as a salt.
Threshold 600 µM: CC50 strictly smaller gives yes, otherwise no.

Task item: I'd appreciate it if you could check whether O=C(c1nc2ccccc2o1)C(F)(F)F has CC50 smaller than 600 µM.
Reply: yes

Task item: I'd appreciate it if you could check whether O=C(c1ccccc1)C(F)(F)F has CC50 smaller than 600 µM.
Reply: no

Task item: I'd appreciate it if you could check whether O=C(Cc1nc2ccccc2s1)C(F)(F)F has CC50 smaller than 600 µM.
Reply: yes

Task item: I'd appreciate it if you could check whether COC(=O)CC(=O)C(F)(F)F has CC50 smaller than 600 µM.
Reply: no

Task item: I'd appreciate it if you could check whether CC(=O)C(O)c1ccccc1 (configuration not stated) has CC50 smaller than 600 µM.
Reply: no

Task item: I'd appreciate it if you could check whether O=C(Cc1nc2ccccc2o1)C(F)(F)F has CC50 smaller than 600 µM.
Reply: yes

Task item: I'd appreciate it if you could check whether O=C(OC1c2ccccc2-c2ccccc21)N1C=C(C(=O)C(F)(F)F)CC1 has CC50 smaller than 600 µM.
Reply: yes

Task item: I'd appreciate it if you could check whether O=C(Cc1ccccc1)C(F)(F)F has CC50 smaller than 600 µM.
Reply: no

Task item: I'd appreciate it if you could check whether CCCCCCC(=O)C(O)C(F)(F)F (configuration not stated) has CC50 smaller than 600 µM.
Reply: yes

Task item: I'd appreciate it if you could check whether O=C(c1ccccc1)C(O)C(F)(F)F (configuration not stated) has CC50 smaller than 600 µM.
Reply: yes

Task item: I'd appreciate it if you could check whether O=C(Cc1ccccc1)C(O)C(F)(F)F (configuration not stated) has CC50 smaller than 600 µM.
Reply: yes

Task item: I'd appreciate it if you could check whether O=C(CC(=O)C(F)(F)F)c1ccccc1 has CC50 smaller than 600 µM.
Reply: yes

Task item: I'd appreciate it if you could check whether O=C(c1c[nH]c2ccccc12)C(F)(F)F has CC50 smaller than 600 µM.
Reply: yes

Task item: I'd appreciate it if you could check whether O=C(Cc1ccccn1)C(F)(F)F has CC50 smaller than 600 µM.
Reply: no

Task item: I'd appreciate it if you could check whether C=CCOC(=O)N1C=C(C(=O)C(F)(F)F)CC1 has CC50 smaller than 600 µM.
Reply: yes

Task item: I'd appreciate it if you could check whether OC(c1ccccc1)C(F)(F)F (configuration not stated) has CC50 smaller than 600 µM.
Reply: no

Task item: I'd appreciate it if you could check whether O=C(Oc1ccccc1)N1C=C(C(=O)C(F)(F)F)CC1 has CC50 smaller than 600 µM.
Reply: yes

Task item: I'd appreciate it if you could check whether COc1cccc2c1C(=O)c1c(O)c3c(c(O)c1C2=O)C[C@@](O)(C(=O)CO)C[C@@H]3O[C@H]1C[C@H](N)[C@H](O)[C@H](C)O1 [DOXORUBICIN HYDROCHLORIDE] has CC50 smaller than 600 µM.
Reply: yes

Task item: I'd appreciate it if you could check whether O=C(CC(O)C(F)(F)F)c1ccccc1 (configuration not stated) has CC50 smaller than 600 µM.
Reply: yes

Task item: I'd appreciate it if you could check whether O=C(c1ccc[nH]1)C(F)(F)F has CC50 smaller than 600 µM.
Reply: no

Task item: I'd appreciate it if you could check whether O=C(C(=O)C(F)(F)F)c1ccccc1 has CC50 smaller than 600 µM.
Reply: yes

Task item: I'd appreciate it if you could check whether OC(Cc1ccccc1)C(F)(F)F (configuration not stated) has CC50 smaller than 600 µM.
Reply: yes

Task item: I'd appreciate it if you could check whether O=C(c1cccs1)C(F)(F)F has CC50 smaller than 600 µM.
Reply: no

Task item: I'd appreciate it if you could check whether O=C(Cc1nc2ccccc2[nH]1)C(F)(F)F has CC50 smaller than 600 µM.
Reply: yes

Task item: I'd appreciate it if you could check whether CC(=O)CC(=O)C(F)(F)F has CC50 smaller than 600 µM.
Reply: no

Task item: I'd appreciate it if you could check whether Cc1nc(CC(=O)C(F)(F)F)oc1C has CC50 smaller than 600 µM.
Reply: yes

Task item: I'd appreciate it if you could check whether O=C(NCCCC(=O)C(O)C(F)(F)F)c1ccccc1 (configuration not stated) has CC50 smaller than 600 µM.
Reply: yes
